Biological target: T1, AnkG 275-571 (AnkG R8-16) (UniProt O70511 275-571)
T1 sequence: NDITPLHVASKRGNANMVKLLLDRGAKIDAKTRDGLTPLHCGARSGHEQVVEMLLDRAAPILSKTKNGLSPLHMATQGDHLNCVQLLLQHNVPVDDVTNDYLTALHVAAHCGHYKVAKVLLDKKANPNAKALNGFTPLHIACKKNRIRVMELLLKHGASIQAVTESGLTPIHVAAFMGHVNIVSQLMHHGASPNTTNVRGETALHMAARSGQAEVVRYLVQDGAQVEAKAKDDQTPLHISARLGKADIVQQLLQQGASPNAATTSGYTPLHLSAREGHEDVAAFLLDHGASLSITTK
Experiment: ITC
Endpoint Label: Kd

Query (binder): SDDSLVDYGEGGEGQFNEDGSFIGQYTV (domain or fragment) [Nfasc ankyrin binding domain (ABD), residues 1187-1214] ; field requested: Kd
~1200 nM
